tested on: MV4-11 cells; experiment: MV4-11 cell proliferation assay (CTG cell viability); type: cell-based; settings: 120 hours, read-out: CTG cell viability assay_MV4-11: IC50
Catalogue of IC50 readings, one per entry.

Recorded IC50, per entry:
O=C1CCC(N2Cc3cc(C(=O)N[C@H](c4ccc(F)cc4)C4CCC4)ccc3C2=O)C(=O)N1 (stereo in doubt) [Compound 7] : 112 nM
O=C1CC[C@@H](N2Cc3cc(C(=O)N[C@H](c4ccc(F)cc4)C4CCC4)ccc3C2=O)C(=O)N1 (relative stereo) [Compound 8] : 205 nM

Switching to the query record.
Sample O=C1CCC(N2Cc3cc(C(=O)N[C@H](c4ccc(Cl)cn4)C4CCC4)ccc3C2=O)C(=O)N1 (stereo in doubt) [Compound 76] — what was its IC50?
71 nM

====

Catalogue of HiBiT GSPT1: Dmax readings, one per entry.
biological target: HiBiT tagged GSPT1 (Homo sapiens, UniProt P15170+Q96SW2); test: GSPT1 degradation assay (HiBiT assay); format: cell-based; conditions: HT-1080 cells, 20 hours; maximum GSPT1 degradation
Sequence (P15170 whole entry, one chain of several): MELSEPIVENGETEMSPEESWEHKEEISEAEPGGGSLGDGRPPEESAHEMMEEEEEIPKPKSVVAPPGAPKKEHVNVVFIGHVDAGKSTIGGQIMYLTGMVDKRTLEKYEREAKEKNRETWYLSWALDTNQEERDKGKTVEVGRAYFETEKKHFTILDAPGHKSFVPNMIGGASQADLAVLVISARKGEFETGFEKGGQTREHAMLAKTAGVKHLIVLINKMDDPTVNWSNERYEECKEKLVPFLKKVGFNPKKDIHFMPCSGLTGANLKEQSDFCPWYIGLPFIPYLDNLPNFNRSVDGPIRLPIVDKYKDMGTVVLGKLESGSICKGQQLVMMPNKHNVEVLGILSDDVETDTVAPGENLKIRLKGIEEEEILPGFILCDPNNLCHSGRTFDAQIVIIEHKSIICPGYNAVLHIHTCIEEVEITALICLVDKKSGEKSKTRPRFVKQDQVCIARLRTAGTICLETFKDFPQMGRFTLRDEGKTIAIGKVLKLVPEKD
Answer format: value, then unit.

O=C1CC[C@H](N2Cc3cc(C(=O)N[C@H](c4ccc(F)c(F)c4)C4CCC4)ccc3C2=O)C(=O)N1 (racemic) [Compound 48] : 26.2%
O=C1CCC(N2Cc3cc(C(=O)N[C@H](c4ccc(F)cc4)C4CCC4)ccc3C2=O)C(=O)N1 (stereo in doubt) [Compound 7] : 28.6%
O=C1CC[C@@H](N2Cc3cc(C(=O)N[C@H](c4ccc(Cl)cc4F)C4CCC4)ccc3C2=O)C(=O)N1 (racemic) [Compound 54] : 47.9%

Sample O=C1CC[C@@H](N2Cc3cc(C(=O)N[C@H](c4ccc(F)cc4Cl)C4CCC4)ccc3C2=O)C(=O)N1 (racemic) [Compound 52] — what was its HiBiT GSPT1: Dmax?
28.5%

Sample O=C1CC[C@H](N2Cc3cc(C(=O)N[C@H](c4ccc(Cl)cc4F)C4CCC4)ccc3C2=O)C(=O)N1 (racemic) [Compound 57] — what was its HiBiT GSPT1: Dmax?
19.1%

Sample O=C1CCC(N2Cc3cc(C(=O)N[C@@H](c4ccc(Cl)cc4)C4CC4)ccc3C2=O)C(=O)N1 (stereo in doubt) [Compound 2] — what was its HiBiT GSPT1: Dmax?
33.6%

====

target: HiBiT tagged GSPT1 (Homo sapiens, UniProt P15170+Q96SW2); assay: GSPT1 degradation assay (HiBiT assay); format: cell-based; conditions: HT-1080, HT-1080 cells, 20 hours; maximum GSPT1 degradation
Measurement Type: Dmax (%)
Note: unit % is implicit; provide only the numeric part.

COc1cccc([C@@H](NC(=O)c2ccc3c(c2)CN(C2CCC(=O)NC2=O)C3=O)C2CC2)c1 (stereo in doubt) [Compound 32] : 36.3
O=C1CCC(N2Cc3cc(C(=O)NC(c4ccc(F)c(F)c4)C4CCC4)ccc3C2=O)C(=O)N1 (centres unmarked) [Compound 40] : 30.6
O=C1CCC(N2Cc3cc(C(=O)N[C@H](c4ccc(F)cc4Cl)C4CC4)ccc3C2=O)C(=O)N1 (stereo in doubt) [Compound 13] : 37
O=C1CCC(N2Cc3cc(C(=O)N[C@@H](c4ccc(F)cc4)C4CCC4)ccc3C2=O)C(=O)N1 (stereo in doubt) [Compound 75] : 24.1
O=C1CCC(N2Cc3cc(C(=O)N[C@H](c4ncc(F)cc4Cl)C4CCC4)ccc3C2=O)C(=O)N1 (stereo in doubt) [Compound 81] : 18.4

Sample O=C1CCC(N2Cc3cc(C(=O)N[C@@H](c4ccc(F)cc4)C4CC(F)(F)C4)ccc3C2=O)C(=O)N1 (single isomer, unassigned) [Compound 5] — what was its Dmax?
30.3

Sample Cc1cccc([C@H](NC(=O)c2ccc3c(c2)CN(C2CCC(=O)NC2=O)C3=O)C2CC2)c1 (stereo in doubt) [Compound 29] — what was its Dmax?
22

Sample O=C1CCC(N2Cc3cc(C(=O)N[C@@H](c4cccc(C(F)(F)F)c4)C4CC4)ccc3C2=O)C(=O)N1 (stereo in doubt) [Compound 33] — what was its Dmax?
66.3

Sample O=C1CCC(N2Cc3cc(C(=O)NC(c4cccc(F)c4Cl)C4CC4)ccc3C2=O)C(=O)N1 (centres unmarked) [Compound 43] — what was its Dmax?
58.2

Sample O=C1CCC(N2Cc3cc(C(=O)N[C@@H](c4cccc(Cl)c4)C4CCC4)ccc3C2=O)C(=O)N1 (stereo in doubt) [Compound 68] — what was its Dmax?
48.3

====

target: HiBiT tagged CK1α (Homo sapiens, UniProt P48729+Q96SW2); experiment: CK1α degradation assay (HiBiT assay); type: cell-based; conditions: HT-1080 cells, 20 hours; maximum CK1α degradation
Sequence (P48729 whole entry): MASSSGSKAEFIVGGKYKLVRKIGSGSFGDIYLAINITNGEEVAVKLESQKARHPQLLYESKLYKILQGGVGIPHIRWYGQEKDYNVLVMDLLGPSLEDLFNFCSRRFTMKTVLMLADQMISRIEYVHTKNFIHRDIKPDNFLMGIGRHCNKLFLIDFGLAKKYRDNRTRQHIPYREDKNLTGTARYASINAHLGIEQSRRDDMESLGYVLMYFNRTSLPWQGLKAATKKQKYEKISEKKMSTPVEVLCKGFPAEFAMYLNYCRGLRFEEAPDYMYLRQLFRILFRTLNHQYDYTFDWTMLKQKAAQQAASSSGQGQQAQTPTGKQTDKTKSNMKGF
Sequence (Q96SW2 whole entry): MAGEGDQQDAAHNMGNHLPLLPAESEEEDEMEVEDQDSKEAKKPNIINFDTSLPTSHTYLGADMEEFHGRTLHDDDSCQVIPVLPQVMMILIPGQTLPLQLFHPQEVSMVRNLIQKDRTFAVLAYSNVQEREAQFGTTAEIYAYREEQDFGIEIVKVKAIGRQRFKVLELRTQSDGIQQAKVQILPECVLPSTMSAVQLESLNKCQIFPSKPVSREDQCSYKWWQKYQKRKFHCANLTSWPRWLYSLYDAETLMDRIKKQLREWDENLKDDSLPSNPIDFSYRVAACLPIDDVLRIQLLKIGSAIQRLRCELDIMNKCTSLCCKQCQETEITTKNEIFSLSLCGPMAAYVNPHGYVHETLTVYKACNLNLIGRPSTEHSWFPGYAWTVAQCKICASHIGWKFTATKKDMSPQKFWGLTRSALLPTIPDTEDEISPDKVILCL
Sequence (Q16531 whole entry partner): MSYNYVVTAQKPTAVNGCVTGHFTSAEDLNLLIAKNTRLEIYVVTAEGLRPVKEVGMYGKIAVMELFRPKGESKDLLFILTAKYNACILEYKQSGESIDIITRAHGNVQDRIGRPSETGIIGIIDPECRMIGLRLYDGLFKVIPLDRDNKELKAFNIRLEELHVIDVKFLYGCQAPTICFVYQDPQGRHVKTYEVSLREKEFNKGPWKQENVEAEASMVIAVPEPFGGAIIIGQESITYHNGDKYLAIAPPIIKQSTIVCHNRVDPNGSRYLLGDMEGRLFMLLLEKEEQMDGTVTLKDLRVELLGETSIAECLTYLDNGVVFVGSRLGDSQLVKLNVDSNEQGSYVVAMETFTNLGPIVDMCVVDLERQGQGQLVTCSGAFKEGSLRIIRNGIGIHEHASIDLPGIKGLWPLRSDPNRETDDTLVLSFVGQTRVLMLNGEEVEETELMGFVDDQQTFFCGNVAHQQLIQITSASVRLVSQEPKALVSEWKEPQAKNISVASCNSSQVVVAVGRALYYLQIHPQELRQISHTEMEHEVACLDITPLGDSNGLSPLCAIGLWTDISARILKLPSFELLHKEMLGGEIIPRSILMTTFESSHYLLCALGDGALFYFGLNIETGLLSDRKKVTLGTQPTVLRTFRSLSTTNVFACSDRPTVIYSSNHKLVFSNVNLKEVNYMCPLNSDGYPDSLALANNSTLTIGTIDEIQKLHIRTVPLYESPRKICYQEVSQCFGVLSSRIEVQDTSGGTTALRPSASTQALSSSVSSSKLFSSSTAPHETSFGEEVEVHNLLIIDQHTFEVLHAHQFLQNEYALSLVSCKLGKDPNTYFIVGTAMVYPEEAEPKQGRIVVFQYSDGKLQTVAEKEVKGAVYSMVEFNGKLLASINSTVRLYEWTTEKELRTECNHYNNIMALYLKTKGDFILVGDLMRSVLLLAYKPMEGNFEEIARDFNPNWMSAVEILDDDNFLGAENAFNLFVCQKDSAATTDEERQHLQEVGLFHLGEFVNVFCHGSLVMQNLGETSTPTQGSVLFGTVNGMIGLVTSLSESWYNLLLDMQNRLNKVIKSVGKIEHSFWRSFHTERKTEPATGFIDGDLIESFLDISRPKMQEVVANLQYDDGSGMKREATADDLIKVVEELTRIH
Measurement Type: HiBiT CK1α: Dmax (%)
Note: unit % is implicit; provide only the numeric part.

Recorded HiBiT CK1α: Dmax, per entry:
O=C1CCC(N2Cc3cc(C(=O)N[C@H](c4ccc(F)cc4)C4CCC4)ccc3C2=O)C(=O)N1 (stereo in doubt) : 71.8
O=C1CCC(N2Cc3cc(C(=O)N[C@@H](c4ccc(Cl)cn4)C4CCC4)ccc3C2=O)C(=O)N1 (stereo in doubt) : 41.1
O=C1CCC(N2Cc3cc(C(=O)N[C@@H](c4ccc(Cl)cc4)C4CC4)ccc3C2=O)C(=O)N1 (stereo in doubt) : 67
O=C1CC[C@@H](N2Cc3cc(C(=O)N[C@H](c4ccc(F)cc4)C4CCC4)ccc3C2=O)C(=O)N1 (relative stereo) : 72.9
O=C1CC[C@@H](N2Cc3cc(C(=O)N[C@H](c4ccc(Cl)cc4F)C4CCC4)ccc3C2=O)C(=O)N1 (racemic) : 63.6

Sample O=C1CCC(N2Cc3cc(C(=O)N[C@H](c4ccc(Cl)cn4)C4CCC4)ccc3C2=O)C(=O)N1 (stereo in doubt) — what was its HiBiT CK1α: Dmax?
64.4

====

target: HiBiT tagged CK1α (Homo sapiens, UniProt P48729+Q96SW2); assay: CK1α degradation assay (HiBiT assay); type: cell-based; settings: HT-1080, HT-1080 cells, 20 hours; maximum CK1α degradation
Catalogue of Dmax readings, one per entry.
Note: unit % is implicit; provide only the numeric part.

Recorded Dmax, per entry:
O=C1CCC(N2Cc3cc(C(=O)NC(c4ccc(F)c(F)c4)C4CCC4)ccc3C2=O)C(=O)N1 (stereo not shown) [Compound 40] : 57.5
O=C1CCC(N2Cc3cc(C(=O)N[C@H](c4ccc(Cl)cc4)C4CC4)ccc3C2=O)C(=O)N1 (stereo in doubt) : 50.6
O=C1CCC(N2Cc3cc(C(=O)N[C@H](c4ccc(F)cc4)C4(O)CC4)ccc3C2=O)C(=O)N1 (stereo partly shown) : 59.6

Sample O=C1CCC(N2Cc3cc(C(=O)N[C@H](c4c(F)cccc4F)C4CCC4)ccc3C2=O)C(=O)N1 (stereo in doubt) — what was its Dmax?
76.4

====

test: Pharmacokinetic study of single intravenous and oral administration in mouse; assay type: in vivo; conditions: plasma, 2 mg/kg, IV
Measurement Type: clearance (mL/min/kg)
Note: unit mL/min/kg is implicit; provide only the numeric part.

Recorded clearance, per entry:
O=C1CCC(N2Cc3cc(C(=O)N[C@H](c4ccc(F)cn4)C4(F)CCC4)ccc3C2=O)C(=O)N1 (stereo in doubt) : 7.85
O=C1CC[C@H](N2Cc3cc(C(=O)N[C@H](c4ccc(Cl)cn4)C4CCC4)ccc3C2=O)C(=O)N1 (single isomer, unassigned) : 10.5

Switching to the query record.
Sample O=C1CCC(N2Cc3cc(C(=O)N[C@H](c4ccc(F)cc4F)C4CCC4)ccc3C2=O)C(=O)N1 (stereo in doubt) — what was its clearance?
23

====

target: HiBiT tagged CK1α (Homo sapiens, UniProt P48729+Q96SW2); assay: CK1α degradation assay (HiBiT assay); assay type: cell-based; details: HT-1080 cells, 20 hours; concentration at 50% CK1α degradation
Please assign Not satisfied whenever DC50 is at or above 200 nM, and Satisfied whenever it is below.

These recorded examples may help you get a feel for the data.
N#Cc1ccccc1[C@@H](NC(=O)c1ccc2c(c1)CN(C1CCC(=O)NC1=O)C2=O)C1CC1 (stereo in doubt) : Satisfied
O=C1CCC(N2Cc3cc(C(=O)NC(c4ccc(F)cc4Cl)C4CCC4)ccc3C2=O)C(=O)N1 (stereo not shown) [Compound 19] : Satisfied
O=C1CCC(N2Cc3cc(C(=O)N[C@H](c4cccc(Cl)c4)C4CC4)ccc3C2=O)C(=O)N1 (stereo in doubt) : Not satisfied
O=C1CCC(N2Cc3cc(C(=O)N[C@H](c4ncc(Cl)cc4Cl)C4CCC4)ccc3C2=O)C(=O)N1 (stereo in doubt) : Not satisfied

Please let me know if CN1CCN(c2ccc([C@@H](NC(=O)c3ccc4c(c3)CN(C3CCC(=O)NC3=O)C4=O)C3CCC3)cc2)CC1 (stereo in doubt) shows DC50 below 200 nM.
Satisfied

Please let me know if O=C1CCC(N2Cc3cc(C(=O)N[C@@H](c4cccc(Cl)c4)C4CCC4)ccc3C2=O)C(=O)N1 (stereo in doubt) shows DC50 below 200 nM.
Not satisfied
